Every entry's value here was drawn from paper PMC4764975.

- measuredTarget: BAP-tagged AMPK α2β2γ3 (Homo sapiens, UniProt O43741+P54646+Q9UGI9)
- Construct: Recombinant full-length AMPK heterotrimeric complexes α1β1γ1, α1β2γ1, α1β2γ3, α2β1γ1, α2β2γ1 and α2β2γ3 were cloned into a tricistronic vector system; 6X-His (N); made in house; host or cells: E. coli BL21-CodonPlus (DE3)-RIPL, co-expressed with BirA
- Sequence (P54646 whole entry): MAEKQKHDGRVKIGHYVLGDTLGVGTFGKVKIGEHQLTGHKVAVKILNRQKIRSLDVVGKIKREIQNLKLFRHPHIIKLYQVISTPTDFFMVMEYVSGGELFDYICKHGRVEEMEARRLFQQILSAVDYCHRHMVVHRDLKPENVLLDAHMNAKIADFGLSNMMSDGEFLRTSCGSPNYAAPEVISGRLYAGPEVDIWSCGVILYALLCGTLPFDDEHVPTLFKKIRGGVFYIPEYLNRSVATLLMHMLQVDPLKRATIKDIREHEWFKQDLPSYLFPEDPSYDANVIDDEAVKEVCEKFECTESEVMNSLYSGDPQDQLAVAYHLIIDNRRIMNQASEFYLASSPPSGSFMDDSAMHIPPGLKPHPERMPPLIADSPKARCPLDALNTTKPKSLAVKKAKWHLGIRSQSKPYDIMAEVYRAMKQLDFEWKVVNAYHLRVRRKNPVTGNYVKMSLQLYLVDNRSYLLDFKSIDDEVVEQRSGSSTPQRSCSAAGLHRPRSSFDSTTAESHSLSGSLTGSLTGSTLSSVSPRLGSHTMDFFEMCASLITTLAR
- Sequence (O43741 whole entry): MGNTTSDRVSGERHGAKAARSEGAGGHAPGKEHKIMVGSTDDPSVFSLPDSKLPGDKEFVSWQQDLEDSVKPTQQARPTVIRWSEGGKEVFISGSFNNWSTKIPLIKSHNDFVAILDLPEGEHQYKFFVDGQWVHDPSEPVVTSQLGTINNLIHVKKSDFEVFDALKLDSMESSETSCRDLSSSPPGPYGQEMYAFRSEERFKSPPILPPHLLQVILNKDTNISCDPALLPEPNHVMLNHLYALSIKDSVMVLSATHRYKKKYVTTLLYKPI
- Sequence (Q9UGI9 whole entry): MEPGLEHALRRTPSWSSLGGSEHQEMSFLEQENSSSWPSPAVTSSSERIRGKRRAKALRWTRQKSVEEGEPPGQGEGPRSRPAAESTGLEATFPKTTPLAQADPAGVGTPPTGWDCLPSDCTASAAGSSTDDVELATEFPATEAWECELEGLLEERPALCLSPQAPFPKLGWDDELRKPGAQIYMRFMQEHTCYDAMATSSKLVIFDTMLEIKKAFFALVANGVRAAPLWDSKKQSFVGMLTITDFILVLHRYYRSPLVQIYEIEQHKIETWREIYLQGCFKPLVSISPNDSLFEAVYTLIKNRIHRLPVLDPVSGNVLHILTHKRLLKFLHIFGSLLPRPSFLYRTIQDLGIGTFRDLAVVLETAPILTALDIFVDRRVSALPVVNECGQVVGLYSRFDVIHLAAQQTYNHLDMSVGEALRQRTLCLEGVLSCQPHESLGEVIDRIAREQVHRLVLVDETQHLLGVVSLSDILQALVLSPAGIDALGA
- protocol: SPR direct binding (Biacore)
- conditionDescription: weaker site, presence of Mg2+ and 25 nM Stau, read-out: KD2
pKd: −log10 of the molar value.
parameter: pKd

Lookup: Any idea what pKd was measured for `Nc1ncnc2c1ncn2[C@@H]1O[C@H](COP(=O)(O)O)[C@@H](O)[C@H]1O` ?
Found: ~4.40
